# PROCEDURE_TEXT: Antiproliferative activity against human 1205Lu cells assessed as reduction in cell growth
# Format: functional, cell-based
Assignment: determine reported pIC50 for the given compounds.
Give bare numbers, as −log10 of the molar value.

C[C@@H]1CC[C@H]2[C@@H](C)C(CC(CC3O[C@@H]4O[C@]5(C)CC[C@@H]6[C@@H](C)CC[C@H]([C@@H]3C)[C@]46OO5)CS(=O)(=O)c3ccc(CO)cc3)O[C@H]3O[C@@]4(C)CC[C@@H]1[C@]32OO4 (stereo not given in full) :: 7.00
C[C@H]1[C@H](OC(=O)CCC(=O)O)O[C@@H]2O[C@@]3(C)CC[C@H]4[C@H](C)CC[C@@H]1[C@@]24OO3 [ARTESUNATE] :: 5.15
C[C@@H]1CC[C@H]2[C@@H](C)C(CC(COP(=O)(Oc3ccccc3)Oc3ccccc3)CC3O[C@@H]4O[C@]5(C)CC[C@@H]6[C@@H](C)CC[C@H]([C@@H]3C)[C@]46OO5)O[C@H]3O[C@@]4(C)CC[C@@H]1[C@]32OO4 (stereo not given in full) :: 7.22
C[C@@H]1CC[C@H]2[C@@H](C)C(CC(CO)CC3O[C@H]4O[C@@]5(C)CC[C@H]6[C@H](C)CC[C@@H]([C@H]3C)[C@@]46OO5)O[C@H]3O[C@@]4(C)CC[C@@H]1[C@]32OO4 (stereo not given in full) :: 5.31

Proceeding to the next compound to report its pIC50.
// pIC50 lookup, compound = C[C@@H]1CC[C@H]2[C@@H](C)C(CC(CC3O[C@@H]4O[C@]5(C)CC[C@@H]6[C@@H](C)CC[C@H]([C@@H]3C)[C@]46OO5)CS(=O)(=O)c3ccc(COC(=O)N(C)C)cc3)O[C@H]3O[C@@]4(C)CC[C@@H]1[C@]32OO4 (stereo not given in full) , result: 6.89

* * *

# PROCEDURE_TEXT: Cytotoxicity against rat MTLn3 cells assessed as cell growth inhibition
# Type: toxicity, cell-based
For each record, write down the corresponding IC50.
Give bare numbers, in nM.

C[C@@H]1CC[C@H]2[C@@H](C)C(CC(CO)CC3O[C@H]4O[C@@]5(C)CC[C@H]6[C@H](C)CC[C@@H]([C@H]3C)[C@@]46OO5)O[C@H]3O[C@@]4(C)CC[C@@H]1[C@]32OO4 (some centres not stated) :: 43

Okay, now this molecule:
Short answer for C[C@@H]1CC[C@H]2[C@@H](C)C(CC(CC3O[C@@H]4O[C@]5(C)CC[C@@H]6[C@@H](C)CC[C@H]([C@@H]3C)[C@]46OO5)C(=O)N/N=C/c3ccccc3O)O[C@H]3O[C@@]4(C)CC[C@@H]1[C@]32OO4 (some centres not stated) : IC50 was 52

* * *

# Tested on: Plasmodium falciparum
# PROCEDURE_TEXT: Antimalarial activity against Plasmodium falciparum D10 assessed as inhibition of parasitic growth
# Format: functional, organism-based
MEASURED_PARAMETER: pIC50
Answers are plain numbers, as −log10 of the molar value.

In plain terms, C[C@H]1[C@@H](O)O[C@H]2O[C@@]3(C)CC[C@H]4[C@H](C)CC[C@@H]1[C@@]24OO3 has a documented pIC50 of 8.68

* * *

# PROCEDURE_TEXT: Cytotoxicity against pig LLC-PK1 cells
# Assay type: toxicity, cell-based, Sus scrofa
# SETTINGS: read-out: TC50 (the source's name)
MEASURED_PARAMETER: CC50 (nM)
Answers are plain numbers, in nM.

COc1cccc2c1C(=O)c1c(O)c3c(c(O)c1C2=O)C[C@@](O)(C(=O)CO)C[C@@H]3O[C@H]1C[C@H](N)[C@H](O)[C@H](C)O1 [DOXORUBICIN] :: 1290

The compound listed as CC(=O)O[C@H]1C(=O)[C@@]2(C)[C@H]([C@H](OC(=O)c3ccccc3)[C@]3(O)C[C@H](OC(=O)[C@H](O)[C@@H](NC(=O)c4ccccc4)c4ccccc4)C(C)=C1C3(C)C)[C@]1(OC(C)=O)CO[C@@H]1C[C@@H]2O [PACLITAXEL] has a reported CC50 of 4390
